In this section, each of the sequences is paired with its reported folding stability dG unfold.
test: folding stability dG unfold (combined trypsin and chymotrypsin); higher = more stable
# unit: kcal/mol | format: bare number

# Residues, Unit descriptor, folding stability dG unfold
data = [
    ("SAGGMSEEVRKLAEELAKKLNIEKVEVLPDGTVRITLKNGKKIEIKVEKVEVKEVKVEVEVEEVEEESAGGS [r16_296_TrROS_Hall]", "kcal/mol", 3.62),
    ("SAGGMTLTLTGPEEVVDDLLERLREEFPDVTVEPTAVSYDPATGLVTVPVRVVTEDPAVVAAIRAALSSAGG [r13_539_JUSTAS]", "kcal/mol", 3.79),
    ("SAGGSAGGSAGTAEEIAKALEEAGFKVEKLPDGTLKVTVRNPETEETVEITLTLEEIEKLSAGGSAGGSAGG [r11_994_TrROS_Hall]", "kcal/mol", 2.33),
    ("SAGGSAGGSAGGKVTVTPDGRLVIEKPKVTVEPVEVEEVEVELELKLSPEELEELLKKLSAGGSAGGSAGGS [r10_1096_TrROS_Hall]", "kcal/mol", 0.554),
    ("SAGGVREIAKRIANFAREHGYEVEVDEIEPPPNGYVVIDAKIQMRDGGKPVHEFPISIRFPPPPGDPSAGGS [r8_102_TrROS]", "kcal/mol", 3.86),
]

Please look at the following sequence next.
Incoming: Suppose we examine the sequence SALKISVTVDPDGPTATATLELYNPETGKPTTLTATIHRLPDGSYLVTIHFPSNNKTITFTVPEDGVITLSA [r9_1220_TrMRF] ; what folding stability dG unfold value has been reported?
Outgoing: 3.03

----------
test: folding stability dG unfold from chymotrypsin proteolysis; higher = more stable
Measurement label: folding stability dG unfold (kcal/mol)
# value in kcal/mol; strip the unit string

Take a look at these entries with their results.
# Residues, folding stability dG unfold / kcal/mol
rows = [
    ("MEKVLILAKIKLKGPDGEEAEIDFAVEISPEEATPELLKKVREEAEEIAEALKEKGYEVELEVEVVKLGEES [r1_221_TrMRF]", 2.88),
    ("SAGGIDLSKLPKNSIVVITKVKVYPTKVGEPDGEGEGYVEVELRVFRNIPPTGKILSSPLPVKFKIASAGGS [r8_486_TrMRF]", 0.987),
    ("SAGGSMVVVVKLKDGKKIELSVEELKKLAEELGLEPEEEDKEERLERIAKALAEKLGLEVEKVEVLSAGGSA [r2_83_TrROS_Hall]", 2.74),
    ("SAGGPLVVEAKVEGDTVTIRLPNGEEFTAHPDATLFLPNGERVFFEPVSDDVVIATVVPLPEDAEFPSAGGS [r16_277_TrMRF]", -0.0303),
    ("SAGGSKIRIVEIQPSNGFTIKIRPKNGKKMTIPIPPDDMNDPENWERFARTLAKWFEKNGVKDIEISAGGSA [r2_249_TrROS]", 0.615),
    ("SAEPTLAEATNDPATGTATANFPLENLPPDYRVLAVNLETGEVTEFPPDGEVTITAPEGPVLVKLFWKGSAG [r14_134_TrMRF]", -0.512),
]

Next item in the queue.
Incoming: folding stability dG unfold for SAGGSAGGSAGGEIKSGDKVVLVFNEDGKGYKAYYEEELEKLLKEDPKIKKVLVVDVPAESAGGSAGGSAGG [r7_118_TrMRF] ?
Outgoing: -1.04

----------
We begin with a simple list: items and their reported folding stability dG unfold.
test: folding stability dG unfold (combined trypsin and chymotrypsin); higher = more stable
Answer with a number only, understood to be in kJ/mol.

Worked set:
# Residues, Reported measurement
data = [
    ("SAGLDIKKIEFDPNGYLRIEVVYDKNISIKEIIEEIKKLTGATVEKVEVKPTKNGVKAIFILKIDKNLKSAG [r5_774_TrMRF]", 10.9),
    ("SAGGKKLLIKVRIEVFNENGELVREEEIEIEVEGMSEEELEELARELLAKLPPENVKIEVEIVELEESAGGS [r16_774_TrROS_Hall]", 17.4),
    ("SAGGSAGGSAGPEITVVKAPDEGYYYLIKLKVTYTLRDPETTAPLAEFEVEYYFLDRGSASAGGSAGGSAGG [r17_124_TrMRF]", 19.2),
    ("SAGGSAGGSAMITTYDPKTGLVYELVPDPVPGVGVERLVVRVVTVEEFPDAIVRKVEVRPESAGGSAGGSAG [r3_409_JUSTAS]", 2.8),
    ("SAGGSAGGVLRMVRRALKNGKNRPIVIYVPEPEQRNFIKWLKDEWPGIKIKVVPPDQMPPNQIISAGGSAGG [r6_87_TrROS]", 6.13),
]

Incoming: Query: folding stability dG unfold; subject: SAGGLAKAVAEELGLPELKVKEVRFAPDPAGPGLTVEVVFELPDGSYLRVEVRFHPDRIEIKAVPLPPSAGG [r19_392_TrMRF]
Outgoing: 13.5

----------
Measured folding stability dG unfold by item
experiment: folding stability dG unfold from trypsin proteolysis; higher = more stable
Reply with just the number (in kcal/mol).

// solved cases for folding stability dG unfold follow
# Residues, Unit descriptor, folding stability dG unfold
rows = [
    ("SAGGSAGGSLVLPDDYKVIVREFDLSDVGRAVREVMEEFDVKDALFLAVPLPGKVLLFVVVKESAGGSAGGS [r12_929_TrMRF]", "kcal/mol", 2.95),
    ("SAGGRGEGTMNDPEGGRVYKSEYDPGDGQAEIEPKPVPPVPPIDAEELAEELEQKNGLPNDDVEDMLGSAGG [r13_824_TrROS]", "kcal/mol", -0.336),
    ("SAGGSTITTDVPEARELLEELVKAGIKNIKVTVELDGSTVTLEVPPDELEKLVEEIPPEAKVTLEASSAGGS [r16_636_JUSTAS]", "kcal/mol", 0.442),
]

Proceed to the following item.
Incoming: Which folding stability dG unfold is reported for this sequence? SAGGSAGGSAGMKVEEVPETPVWRFTITRGKKTTIVEVEVPPDEPPDPAEVAAELGYELESAGGSAGGSAGG [r11_1053_JUSTAS]
Outgoing: 1.84

----------
test: folding stability dG unfold from chymotrypsin proteolysis; higher = more stable
Response field class: enum, chosen by comparing folding stability dG unfold against A: < 0.6 kcal/mol; B: ≥ 0.6 kcal/mol and < 2 kcal/mol; C: ≥ 2 kcal/mol

Solved cases below.
# Residues, Cat
measured = [
    ("SMLNPDDPSVPERLVLVIPVPEEAVENGDFEVVRAKVEEAAEELEPLGWRVVSVEFDTETKEARLVLERPSA [r9_75_TrMRF]", "C"),
    ("SAGGSAGPSVTVDVTFHPGEGTVDVTVTTEGEVVYGKGTFLNPSTVLVEVYFPGSGKVATLTLPVTSAGGSA [r15_837_TrMRF]", "B"),
]

Incoming: // return the class label for SAGGSAGGSAGPFKIEMTFIFKKDNEYYIAKIEIEISPDGYPKMKIEIKKVDINELENYFSAGGSAGGSAGG [r11_690_TrMRF]
Outgoing: C

----------
test: folding stability dG unfold from chymotrypsin proteolysis; higher = more stable
Measurement label: folding stability dG unfold (kcal/mol)
Report as a plain number; the unit kcal/mol is understood.

Worked examples follow.
# Residues, Reported measurement
rows = [
    ("SAGGSAGGSAMTLNVPDAGGKTYTVEVLSYDPVKNTWTLLNPSTSETITITAEEAAKIKAAASAGGSAGGSA [r18_161_JUSTAS]", 2.01),
    ("SAGGSAGGSAGGSGVLNIDEVWEDPESDLYTVVTTGEDEGTRVFVFDKNGKLLAEADLPSAGGSAGGSAGGS [r4_259_TrMRF]", 0.405),
    ("SAGGLTTQETVSLTSPTNVALTVLSTSVTLSPSTRTLSYTVQGPDGTVTTETVVTPAPLPELDPSAGSAGGS [r16_132_JUSTAS]", 0.346),
    ("SAGGLIEKLKELGFEIVSVEEREETLPNGKKVRTVKITVKLPNGELVKIEVRVLPNGEVIIKIEVKKPSAGG [r13_818_TrROS_Hall]", 3.17),
    ("SAGGSVVTTTFTYPDGTVVTTTTTPRPETLLTTTTTTTFYPDKPVKVAPGKEVVTTVTTTTTTVTPAASAGG [r13_780_JUSTAS]", 0.574),
]

Incoming: Quick one: folding stability dG unfold for SAKMSPEMRELVERLQDLYNENGYKVKIEMSNKPGMIRINVQMPNPRKKRKIKEALRGDGFPITRVEIYSAG [r14_284_TrROS] ?
Outgoing: 0.929

Incoming: Quick one: folding stability dG unfold for SAGGSAGGSAGMVYITKGKDGIWYEAEVDPTKPGAKVKVRHPLTGKEEEITPAEVVAVPPSAGGSAGGSAGG [r11_822_TrMRF] ?
Outgoing: -0.546

Incoming: # input sequence: SAGGSAGGSAGGLLKLKLKLKYEFTFKDENGNTYKVEKELTLVLELPPINETGKKNLVLSAGGSAGGSAGGS [r10_168_TrMRF] ; wanted: its folding stability dG unfold
Outgoing: 3.66

Incoming: Suppose we examine the sequence SAGGSAGGSAGGSGMEEIEEKMKKGYTFTVTSSSPNKTYTIKPEEVSKFKDESISVKAESAGGSAGGSAGGS [r4_157_JUSTAS] ; what folding stability dG unfold value has been reported?
Outgoing: -1.4

Incoming: I'd like to know its folding stability dG unfold. The sequence in question is SAGGLTWEEAREIAEEIANMEVPSPNGMPMKVKVDIEIDPPNGYFRVDVKVEMPGKPQKFPLEIPLKSAGGS [r16_812_TrROS]
Outgoing: 0.536

Incoming: Query: folding stability dG unfold; subject: SAGGSASMTIVPVKSEEELEAYIKTKNPKVFLLPLPDGTELVVKVNVDDPSKIEKVSLSKPEEILLSAGGSA [r15_11_JUSTAS]
Outgoing: 0.664

Incoming: Which folding stability dG unfold is listed for SAGGSMTVVTVEARPPDSSETTVTPLTETAPDGRPRAISLEEARARLAAEPDRPVTRVTVRPEAAASAGGSA [r2_192_JUSTAS] ?
Outgoing: 0.452

Incoming: For the sequence shown here, SAGGSAGGSAGKKKTITIKIPGMSKEEIAKLIKEKFGPNVKITEIKENKDNLLEITVEVESAGGSAGGSAGG [r11_580_TrROS_Hall] , give the reported folding stability dG unfold.
Outgoing: 2.79

Incoming: Item SAGGSAGGSAGGMTAIIVESEEEAKKIAEEKGIKDVKFIPKGKPELLKPDVDKVIKINKKSAGGSAGGSAGG [r7_381_JUSTAS] has what recorded folding stability dG unfold?
Outgoing: 0.348

Incoming: Using the record for SAGGIRIRDEDGKPRAEYTIYHPDHGMPIEINVYRNKDGNPYIQVEMTGPNGRPKKFTMPADDLNDLSAGGS [r8_24_TrROS] , report its folding stability dG unfold.
Outgoing: 0.559

Incoming: For SAGAPLEVPGPLVTVTEEEVPGKPLVFIPTPDGLIVVDLVTGKAERYPLYSEEPIVLDVPPGVVIELPSAGG [r19_138_JUSTAS] , what is its reported folding stability dG unfold?
Outgoing: 0.398

Incoming: Reported folding stability dG unfold for SAPNYVLVIKIKSTNTPYYIPVPEDVEIVVKKNKNGEITAVVKVKDPETGEYFVITFSGDAKIDKIEPVPSA [r9_467_TrMRF] : what is it?
Outgoing: 2.93

Incoming: So what does the record say about folding stability dG unfold for SAGGSAGGSAGGEVPADAVIEERLEVTDVSTGEKRRFRRTVTVEVDPDGSLRVRTEVEEESAGGSAGGSAGG [r7_19_JUSTAS] ?
Outgoing: -0.184

Incoming: Param item = SAGGSAGGKYQEFEYMIMFPDGGMFRVKIEYSPNPGQVKIKIEFPGGEREITIPPGAPITIMPMSAGGSAGG [r6_927_TrROS] ; retrieve measured folding stability dG unfold.
Outgoing: 2.41
